Target: NAMPT (Homo sapiens, UniProt P43490)
Sequence (P43490 whole entry): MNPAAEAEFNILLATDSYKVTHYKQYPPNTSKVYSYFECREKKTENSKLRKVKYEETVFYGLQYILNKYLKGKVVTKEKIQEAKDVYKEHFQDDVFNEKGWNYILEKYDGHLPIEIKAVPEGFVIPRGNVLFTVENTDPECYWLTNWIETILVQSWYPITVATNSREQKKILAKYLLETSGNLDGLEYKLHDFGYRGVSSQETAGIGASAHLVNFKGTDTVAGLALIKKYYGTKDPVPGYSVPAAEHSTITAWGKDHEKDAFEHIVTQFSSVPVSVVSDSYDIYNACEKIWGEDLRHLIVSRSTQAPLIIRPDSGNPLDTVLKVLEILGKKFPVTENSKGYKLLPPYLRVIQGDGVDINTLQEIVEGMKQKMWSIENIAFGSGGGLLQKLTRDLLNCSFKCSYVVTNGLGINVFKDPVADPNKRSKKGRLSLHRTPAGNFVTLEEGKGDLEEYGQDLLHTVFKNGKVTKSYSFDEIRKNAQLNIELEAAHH
Test: TR-FRET Binding Assay of NAMPT with PRPP
Conditions: 2 nM NAMPT, 2 nM probe, 200 µM PRPP and 2.5 mM ATP, equilibrated 16 hours
quantityKind: IC50 (nM)

Below: 3 compounds and their reported IC50.
O=C(Nc1ccc(OC2CN(C(=O)C3CCCC3)C2)cc1)N1CC(c2cccnc2)C1 [Example 142]: 0.339
CC1(C(=O)N2CC(c3ccc(NC(=O)N4CC(c5cccnc5)C4)cc3)C2)CC1 [Example 227]: 0.294
CC(C)(C)C(=O)N1CC(Oc2ccc(NC(=O)N3CC(c4cccnc4)C3)cc2)C1 [Example 128]: 0.519

(A) CC(C)CCN1CCC(c2ccc(NC(=O)N3CC(c4cccnc4)C3)cc2)CC1 [Example 236]
(B) CC(C)CC(=O)N1CCC(c2ccc(NC(=O)N3CC(c4cccnc4)C3)cc2)CC1 [Example 174]
Query: Hey, which is lower on measured IC50, A or B ? Answer = label.
Response: A

* * *

Target: NAMPT (Homo sapiens)
Assay: Time-Resolved Fluorescence Resonance Energy Transfer (TR-FRET) Binding Assay of NAMPT
Details: 6.8 nM NAMPT, 200 nM probe, equilibrated 3 hours, no substrates
quantityKind: IC50 (nM)

O=C(Nc1ccc(C2CCN(C(=O)[C@@H]3CCCO3)CC2)cc1)N1CC(c2cccnc2)C1: 38.9
CC1(C(=O)N2CCC(c3ccc(NC(=O)N4CC(c5cccnc5)C4)cc3)CC2)CCCCC1: 8.06
O=C(CC1CCOCC1)N1CCC(c2ccc(NC(=O)N3CC(c4cccnc4)C3)cc2)CC1: 15.6
CC(=O)N1CCC(C(=O)N2CCC(Oc3ccc(NC(=O)N4CC(c5cccnc5)C4)cc3)CC2)CC1: 50.7
O=C(CC1CC1)N1CCC(c2ccc(NC(=O)N3CC(c4cccnc4)C3)cc2)CC1: 29.3
O=C(Nc1ccc(OC2CN(C(=O)C3CC3)C2)cc1)N1CC(c2cccnc2)C1: 43

(A) O=C(Nc1ccc(C2CCN(CCC3CC3)CC2)cc1)N1CC(c2cccnc2)C1
(B) CC1CC1C(=O)N1CC[C@@H](Oc2ccc(NC(=O)N3CC(c4cccnc4)C3)cc2)C1 (stereo partly drawn)
(C) O=C(CN1CCCC1)N1CC[C@@H](Oc2ccc(NC(=O)N3CC(c4cccnc4)C3)cc2)C1
(D) CN1CCN(CC(=O)N2CCC(c3ccc(NC(=O)N4CC(c5cccnc5)C4)cc3)C2)CC1 (stereo not drawn)
Query: Hey, quick one: sort these by IC50, largest value first please. # the answer lists labels in the order requested
Response: C, A, D, B
(C: 594 nM, A: 374 nM, D: 90.7 nM, B: 59 nM)

(A) O=C1CC[C@H](C(=O)N2CC[C@@H](Oc3ccc(NC(=O)N4CC(c5cccnc5)C4)cc3)C2)N1
(B) O=C(CCN1CCOCC1)N1CCC(Oc2ccc(NC(=O)N3CC(c4cccnc4)C3)cc2)CC1
Query: Hi there! Just curious which has the higher IC50 between A and B . Pick one; state its label.
Response: A
(A: 435 nM, B: 85.4 nM)

(A) CC(C)(O)C(=O)N1CCC(c2ccc(NC(=O)N3CC(c4cccnc4)C3)cc2)C1 (stereo not drawn)
(B) CC(C)(C)OC(=O)N1CCC(c2ccc(NC(=O)N3CC(c4cccnc4Cl)C3)cc2)CC1
(C) O=C(CCC(F)(F)F)N1CC=C(c2ccc(NC(=O)N3CC(c4cccnc4)C3)cc2)CC1
Query: Put the items in order so that reported IC50 rises from first to last. To answer, arrange all of the labels according to the requested order.
Response: B, A, C

Reference source for all entries: patent US9296723B2
